Consider the following variants; for each one, report its protein stability index.
B1: TFE3 (parent)
chain: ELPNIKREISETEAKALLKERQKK

Variants of: B1
assayText: protein stability index of a GFP-peptide fusion (GPS, HEK-293T) (PSI 1-6); higher = more stable;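 further: lentivirally expressed fusions sorted by FACS into six bins by GFP to DsRed ratio, PSI derived from sequencing read proportions per bin multiplied by bin number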
statedConditions: c terminus: a fixed tail appended
Form rule: numeric answer, no unit written next to it.

Note down protein stability index recorded for `I9W`
4.13

Give recorded protein stability index. `R7C`
2.97

// Input: `K6C` . Output its protein stability index only.
2.33

Quickly give me recorded protein stability index for `L18I`
3.06

For the variant `E8K` , give its measured protein stability index value.
4.06

For the variant `K19S` , give its reported protein stability index.
2.53

Read off the recorded protein stability index for `L17T`
2.68

Quote protein stability index reported for `R7S` please.
2.49

Provide only the value of recorded protein stability index for `A14K`
2.75

Provide only the value of recorded protein stability index for `L17Y`
2.48

Report measured protein stability index; entry is `S10A`
2.23

Please indicate protein stability index recorded for `E8N`
3.46

State its protein stability index: `E11Q`
3.29

Specify measured protein stability index for `E1Y` .
2.82

Give the reported value of protein stability index for this record: `E1S`
2.87

Specify reported protein stability index for the variant shown: `N4I`
3.85

Note down protein stability index recorded for `R21K`
2.5

Tell us which protein stability index value is on record for `E8H`
3.31

Complete the entry with protein stability index for `P3V`
2.32

# return recorded protein stability index for input `P3N`
4.13

Return reported protein stability index. Input variant: `E1G`
4.65

Please give measured protein stability index of the following entry: `E11S`
3.61

Given the variant `N4D` , write its reported protein stability index.
2.75

State, in one line, measured protein stability index of `Q22Y`
1.8

State, in one line, measured protein stability index of `P3K`
3.82

Report measured protein stability index; entry is `R7Y`
2.81

Give the value of protein stability index reported for the following: `Q22T`
2.52

# return recorded protein stability index for entry `E1M`
2.39

Fill in protein stability index for record `K19P`
2.29

Consider the variant `L2C` and give its recorded protein stability index.
3.5

Tell me measured protein stability index for `A16E` please.
4.09

Write down protein stability index measured for item `L18A`
2.67

Annotate the variant `T12H` with its measured protein stability index.
4.58

State its protein stability index for this variant: `E13G`
4.58

Please supply the value of reported protein stability index for the item `E20C`
2.07

Please give the documented protein stability index of `A14S`
2.22

Query protein stability index for `Q22S`
2.73

Provide protein stability index value for the following variant: `P3E`
3.17

Retrieve protein stability index measured for `E13T` and print it.
4.34

Read off the recorded protein stability index for `Q22I`
2.52

Read the entry `E11K` and write its reported protein stability index.
3.48

Specify measured protein stability index for `T12S` .
2.69

Supply reported protein stability index belonging to this variant: `A14N`
2.64

Entry `E8L` needs its protein stability index filled in; supply it.
3.6

For the variant `A14Q` , give its reported protein stability index.
2.39

Name the recorded protein stability index of the variant listed here: `R21C`
2.43

// data source = the supplement of paper PMC10567573
